Where these numbers come from: patent US9980943B2

- Tested on: β-galactosidase in CMV-LacZ C2C12 myotubes
- protocol.text: CMV-LacZ secondary screen in C2C12 myotubes (β-Gal stabilizing assay)
- Format: cell-based, mouse
- measurement.conditions: 20 uM; SU9516 analogs, C2C12 CMV-LacZ, N=2
- Source text: In order to determine compounds that acted to stabilize β-gal in myogenic cells, a CMV-LacZ C2C12 cell line was used in a secondary screen. The EGFP gene from the pEGFP (Clontech) vector was replaced by LACZ PCR product with digests of the vector/PCR product performed using EcoRI (NEB) and NotI (NEB) and ligated using T4 DNA Ligase (NEB) following standard procedures to produce the CMV-LACZ vector. […]
Threshold check on CMV-LACZ in Myotubes, value relative to DMSO: at or above 0.9 gives TRUE, strictly below gives FALSE.

Use these answered entries as a reference point.
CCOc1cc2c3c(c1)C(C)=CC(C)(C)N3C(=O)C2=O
TRUE
Cc1ccc2c(c1)/C(=C/c1ccccc1)C(=O)N2
FALSE

[in] Form field: CMV-LACZ in Myotubes, value relative to DMSO at least 0.9? Entry: Cc1[nH]c(C=C2C(=O)Nc3ccccc32)c(C)c1CCC(=O)O
[out] TRUE

* * *

Each record here notes measured EC50.
- Tested on: α7 integrin (LacZ reporter in α7LacZ+/− myoblasts)
- protocol.text: qHTS of the LOPAC library and MLSMR (online screen, α7LacZ+/− myoblasts)
- measurement.conditions: Mus musculus, Myoblast, read-out: Fit LogAC50 (converted)
Please state the value followed by its unit.

Consider the reported EC50 for these compounds:
O=C(CSc1nnc(C2CC2)n1C1CC1)c1cccs1
10 µM
COC(=O)C1=NNC2(C)C(=O)N(c3ccc(C)cc3)C(=O)C12 (centres unmarked)
10 µM
CCOC(=O)c1sc(=N)n(-c2ccc(OC)cc2)c1C
2 µM
COc1ccc2oc(C[S+]([O-])c3ccccc3)c(C(=O)O)c2c1 (centres unmarked)
12.6 µM
COc1ccc(N(CC(=O)NCCC(C)C)C(=O)c2snc(C(=O)NC3CCCCC3)c2N)c(OC)c1
10 µM
CC1CCCCC12NC(=O)N(CC(=O)OCc1cccc(F)c1)C2=O (centres unmarked)
10 µM
Cc1cccn2c(=O)c3cc(C(=O)NC4CCCCC4)n(C)c3nc12
14.1 µM
COc1ccc(N2CCCC2)c(NC(=O)c2ccc([N+](=O)[O-])o2)c1
7.94 µM
COc1ccc(-n2c(C)c(C(C)=O)c3cc(OC(C)=O)ccc32)cc1
10 µM
O=C(CNC(=O)c1cccc(F)c1)N/N=C/c1cc(Br)ccc1OCc1ccccc1
10 µM

Note: attention shifts to another entry.
[in] Which EC50 value is on record for COc1nccc(NCc2ccccc2)c1C#N ?
[out] 10 µM

* * *

Burkin Assay in Myoblasts, value relative to DMSO reference
- Tested on: α7 integrin (LacZ reporter in α7βgal+/− myoblasts)
- protocol.text: Myoblast α7+/LacZ integrin FDG assay (Burkin assay in myoblasts, 96-well)
- Type: cell-based, mouse
- measurement.conditions: 1 uM; α7+/LacZ myoblasts, 96-well
// return just the number, without any unit appended

// known answers, use as guide
O=C(COC(=O)c1cc2ccccc2oc1=O)Nc1ccc(F)cc1F [MLS000516719-01]
1.048
O=C(c1ccc(Cl)c(S(=O)(=O)N2CCCCC2)c1)N1CCN(Cc2ccccc2)CC1 [MLS001060561-01]
0.9284
COCCN(CC(=O)Nc1cccc(C)c1C)C(=O)C1CCN(S(=O)(=O)c2ccccc2)CC1 [MLS002156278-01]
0.9642
Cc1ccccc1C(=O)Nc1nnc(SC(C)C)s1 [MLS000683174-01]
0.9176

[in] # returns recorded Burkin Assay in Myoblasts, value relative to DMSO (system: α7 integrin (LacZ reporter in α7βgal+/− myoblasts)) for Cc1cccc(OCc2nc(C#N)c(N3CCCC3)o2)c1 [MLS000332693-01]
[out] 0.9937

[in] Item: Cc1cc(-c2ccccc2)n2nc(N)nc2n1 [MLS000122180-01] Test system: α7 integrin (LacZ reporter in α7βgal+/− myoblasts) Read-out: Burkin Assay in Myoblasts, value relative to DMSO Value: ?
[out] 0.8424

[in] Param readout = Burkin Assay in Myoblasts, value relative to DMSO; param system = α7 integrin (LacZ reporter in α7βgal+/− myoblasts); param query = O=C(NCc1ccccc1)C(c1ccc(O)cc1)N(C(=O)Cn1nnc(-c2cccs2)n1)c1ccc2c(c1)OCCO2 (stereo not drawn) [MLS000123454-01] ; response: value
[out] 0.8234

[in] Find the measured Burkin Assay in Myoblasts, value relative to DMSO: item C=CCN(CC=C)C(=O)c1ccc(OC2CCN(S(=O)(=O)N(C)C)CC2)cc1 [MLS000693729-01] , target or system α7 integrin (LacZ reporter in α7βgal+/− myoblasts).
[out] 0.7902

[in] For the record CC(C(=O)Nc1ccc(C#N)cc1)N(C)CC(=O)Nc1cccc(F)c1 (stereo not drawn) [MLS001033255-01] , what value of Burkin Assay in Myoblasts, value relative to DMSO is listed for α7 integrin (LacZ reporter in α7βgal+/− myoblasts)?
[out] 0.9407

* * *

Catalogue of compounds with associated fold induction at 10 µM
- Test system: α7 integrin (LacZ reporter in α7βgal+/− myoblasts)
- protocol.text: Myoblast α7+/LacZ integrin FDG assay (Burkin assay in myoblasts, 96-well)
- Assay type: cell-based, mouse
- measurement.conditions: Mus musculus, Myoblast, 48 h; 10 uM; α7+/LacZ myoblasts, 96-well; read-out: Burkin Assay in Myoblasts, signal relative to DMSO
Form rule: numeric answer, no unit written next to it.

[in] Notebook: pull reported fold induction at 10 µM for α7 integrin (LacZ reporter in α7βgal+/− myoblasts), entry Cc1ccc(OCC(=O)N2CCN(S(=O)(=O)c3ccc4c(c3)OCCO4)CC2)c(C)c1 [MLS002158881-01]
[out] 1.02

* * *

- System: α7 integrin (LacZ reporter in α7βgal+/− myoblasts)
- protocol.text: Myoblast α7+/LacZ integrin FDG assay (Burkin assay in myoblasts, 96-well)
- Assay type: cell-based, mouse
- measurement.conditions: 40 uM; α7+/LacZ myoblasts, 96-well
property.name: Burkin Assay in Myoblasts, signal relative to DMSO
Answer field: number only, no words.

The following molecules have reported results that may help.
CC(OC(=O)c1cc(-c2cccnc2)nc2ccccc12)C(=O)Nc1ccc2ccccc2c1 (centres unmarked) [MLS000389484-01]
0.6132
NS(=O)(=O)c1ccc(NC(=O)c2ccc(CNS(=O)(=O)c3cc(C(F)(F)F)ccc3Cl)cc2)cc1 [MLS000393110-01]
0.71
CC(C)(C)n1cnc2cc(NC(=O)c3ccco3)ccc21 [MLS001223567-01]
0.864
COc1ccc(CN2CCNC(=O)C2CC(=O)NCCc2c[nH]c3ccccc23)c(OC)c1 (centres unmarked) [MLS000734270-01]
0.9873
COc1ccccc1NS(=O)(=O)c1cc(NC(=O)c2ccc(Cl)nc2)ccc1N1CCCC1 [MLS002248819-01]
0.7689
CC(NC(=O)c1ccc(C(C)(C)C)cc1)C(c1cccs1)N1CCOCC1 (centres unmarked) [MLS001167281-01]
0.8618
CC1(C)Cc2ccccc2-c2nc3n(c(=O)c21)CCS3 [MLS000711491-01]
0.5793
CN(/C(=N/S(=O)(=O)c1cccs1)c1ccccc1)c1ccccc1 [MLS000582947-01]
0.7737

[in] Given the molecule CC1CCN(C(CNS(=O)(=O)c2ccccc2)c2ccccc2)CC1 (centres unmarked) [MLS002171615-01] , what is its reported Burkin Assay in Myoblasts, signal relative to DMSO?
[out] 0.6178

[in] Looking for the measured Burkin Assay in Myoblasts, signal relative to DMSO of COc1ccc(N2CCN(CCC3Oc4cc([N+](=O)[O-])ccc4NC3=O)CC2)cc1 (centres unmarked) [MLS000696445-01] , can you help?
[out] 0.807

[in] Any idea what Burkin Assay in Myoblasts, signal relative to DMSO was measured for COc1ccc(CNC(=O)COC(=O)CCc2c[nH]c3ccccc23)cc1 [MLS001033202-01] ?
[out] 0.7704

[in] Using the record for CC(=O)Nc1ccc(NC(=O)c2cc(=O)c3cc(C)cc(C)c3o2)cc1 [MLS001200396-01] , report its Burkin Assay in Myoblasts, signal relative to DMSO.
[out] 0.4794

[in] Returns the measured Burkin Assay in Myoblasts, signal relative to DMSO for the input molecule. Input: O=C(Nc1cc(-c2nc3ccccc3s2)ccc1Cl)c1ccc2c(c1)OCO2 [MLS000560266-01]
[out] 0.5589

[in] Name the recorded Burkin Assay in Myoblasts, signal relative to DMSO for Cc1ccsc1-c1n[nH]c(=S)n1C1CCCCC1 [MLS000698617-01] .
[out] 0.8966

[in] Entry under review: CCOC(=O)c1nnn(-c2nonc2OC)c1-c1ccccc1 [MLS000045588-01] . Reported Burkin Assay in Myoblasts, signal relative to DMSO?
[out] 0.8919
